Test: qHTS assay to identify small molecule antagonists of the progesterone receptor (PR) signaling pathway - cell viability counter screen (AID 1346798); also: nearly all actives have a fitted effect of over 50% in size
Conditions: PR-UAS-bla HEK293T viability, CellTiter-Glo luminescence, 16 h; series mostly up to 92.4 µM
Records with an inconclusive call do not appear. The source made the active and inactive calls. Calls follow the shape of the dose curve; as a rule, active = well fitted cell-killing curve with a large enough effect in the repeat runs; inconclusive = weak or mixed curves, or effect the other way; inactive = no such curve, though single readings can be large or run the other way.
Pick from t for active, f for inactive when you respond.

Example results:
>  <compound>
CCCCCCCCCCCCCCCC[N+](C)(C)C

>  <label_value>
t

$$$$
>  <compound>
Oc1cccc(-c2ccccc2)c1

>  <label_value>
f

$$$$
>  <compound>
Clc1ccc(CSC(Cn2ccnc2)c2ccc(Cl)cc2Cl)cc1 (configuration not stated)

>  <label_value>
t

$$$$
>  <compound>
Clc1ccc(-c2ccccc2)cc1

>  <label_value>
f

$$$$
>  <compound>
CN(C)C1CSSSC1

>  <label_value>
f

$$$$

// query Each compound tested received a call. Report the one for `Oc1c(Cl)c(Cl)cc(Cl)c1Cl` .
// result f

// query Input `O=C(NC(=O)c1c(F)cccc1F)Nc1cc(Cl)c(OC(F)(F)C(F)F)c(Cl)c1`
// result f
